- experiment_summary: Partition coefficient, log P of the compound
- Type: physicochemical
- condition_label: octanol/water
reported_property: logP

COc1ccccc1N1CCN(C/C=C/CNC(=O)c2cc(I)ccc2OCCF)CC1	4.73
O=C(NCCCCN1CCN(c2ccccc2OCCF)CC1)c1ccc(OCCOCCF)cc1	3.34
CN(C)c1ccc(C(=O)NC/C=C/CN2CCN(c3ccccc3OCCF)CC2)cc1	3.83

[P] COc1ccccc1N1CCN(CCCCNC(=O)c2ccc(CCF)cc2)CC1
[Q] COc1ccccc1N1CCN(C/C=C/CNC(=O)c2cc(Br)ccc2OCCF)CC1
Q) Exercise: compare P and Q ; which one has the greater logP? // respond with label for picked entry
A) Q
(Q: 4.49, P: 2.94)
